Value source: ChEMBL document CHEMBL5442663

Known solubility kinetic of a selection of molecules
Experiment: Kinetic solubility of compound by measuring concentration at pH 7.4 in saturated PBS buffer by UV LCMS/MS using calibration curves. The assay has been performed by Enamine biological services, Bienta Ltd.The protocol is publicly available: dx.doi.org/10.17504/protocols.io.j8nlk8y41l5r/v1
Assay type: physicochemical
Settings: PBS buffer
Field: numeric (µM). Do not append units.

Consider the reported solubility kinetic for these molecules:
CC(C)[C@H](Nc1ncnc2[nH]c(-c3cnn(C)c3C#N)cc12)c1ccc2c(c1)OCCO2	15
CNC(=O)c1cc2c(N[C@H](c3ccc4c(c3)S(=O)(=O)CCC4)C(C)C)ncnc2[nH]1	374
CC(C)[C@@H](Nc1ncnc2[nH]c(-c3cnn(CC(N)=O)c3)cc12)c1ccc2c(c1)OCCO2	345

API: the following record is the query input.
Query: Indicate the recorded solubility kinetic value for this molecule: CC(C)[C@H](Nc1ncnc2[nH]c(-c3cnn(CC(=O)N(C)C)c3)cc12)c1ccc2c(c1)OCCO2
Response: 19
